Tested on: LOVO
Experiment: cells
Format: cell-based
Conditions: LOVO, 48 hours exposure, SRB
Source text: The finality of these assays is to interrupt the growth of a “in vitro” tumor cell culture by means of a continued exhibition of the cells to the sample to be testing. A colorimetric type of assay, using sulphorhodamine B (SRB) reaction has been adapted for a quantitative measurement of cell growth and viability [following the technique described by Philip Skehan, et al. (1990), New colorimetric cytotoxicity assay for anticancer drug screening, J. Natl. Cancer Inst., 82:1107-1112] […]
READOUT_KIND: TGI

Consider the worked cases shown below.
COc1c(C)cc2c(c1O)[C@@H]1C3[C@@H]4SC[C@]5(NC(C)Cc6c5[nH]c5ccc(F)cc65)C(=O)COC[C@@H](c5c6c(c(C)c(OC(C)=O)c54)OCO6)N3[C@@H](O)[C@H](C2)N1C (stereo partly shown)
4.37E−08 Molar
COc1c(C)cc2c(c1O)[C@@H]1C3[C@@H]4SC[C@]5(C(=O)COC[C@@H](c6c7c(c(C)c(OC(C)=O)c64)OCO7)N3[C@@H](O)[C@H](C2)N1C)c1[nH]c2ccccc2c1CCN5C (stereo partly shown) [Compound 40]
5.98E−09 Molar
COc1c(C)cc2c(c1O)[C@@H]1C3[C@@H]4SC[C@]5(NC(C)Cc6c5[nH]c5ccc(O)cc65)C(=O)COC[C@@H](c5c6c(c(C)c(OC(C)=O)c54)OCO6)N3[C@@H](O)[C@H](C2)N1C (stereo partly shown)
1.03E−08 Molar

Turning to the following compound.
Lab note: COc1c(C)cc2c(c1O)[C@@H]1C3[C@@H]4SC[C@]5(C(=O)COC[C@@H](c6c7c(c(C)c(OC(C)=O)c64)OCO7)N3[C@@H](O)[C@H](C2)N1C)c1[nH]c2ccccc2c1CCN5C (stereo partly shown) [Compound 39] gave TGI of 6.22E−08 Molar
